Where do the numbers come from? From the supplement of paper PMC10307832.

# Tested on: HCC-827
# ASSAY TEXT: relative viability (nuclei count vs DMSO), 5 days (fraction); higher = more cells survive
# CONDITION DETAILS: first compound 0.8 µM
Rule for this label: MET means relative viability is less than 0.9; NOT MET means relative viability is at least 0.9.

Consider the worked cases shown below.
{"columns": ["COMPOUND", "LABEL"],
 "data": [
  ["COc1nc(C)cnc1NS(=O)(=O)c1cccnc1-c1ccc(-c2nnco2)cc1 [Zibotentan] + C[C@@H](Oc1cc(-c2cnn(C3CCNCC3)c2)cnc1N)c1c(Cl)ccc(F)c1Cl [Crizotinib] (partner 1 µM)", "NOT MET"],
  ["O=c1cc(-c2cccc3c2Sc2ccccc2S3)oc(N2CCOCC2)c1 + COc1cccc2cc(-c3nc([C@H]4CC[C@H](C(=O)O)CC4)n4ncnc(N)c34)[nH]c12 [OSI-027] (partner 0.5 µM)", "NOT MET"],
  ["O=c1cc(-c2cccc3c2Sc2ccccc2S3)oc(N2CCOCC2)c1 + C[C@@H](Oc1cc(-c2cnn(C3CCNCC3)c2)cnc1N)c1c(Cl)ccc(F)c1Cl [Crizotinib] (partner 1 µM)", "NOT MET"],
  ["COc1nc(C)cnc1NS(=O)(=O)c1cccnc1-c1ccc(-c2nnco2)cc1 [Zibotentan] + O=C(CCCCCCC(=O)Nc1ccccc1)NO [Vorinostat] (partner 1 µM)", "MET"]
]}

Proceed to the following item.
Check if relative viability falls below 0.9 for COc1nc(C)cnc1NS(=O)(=O)c1cccnc1-c1ccc(-c2nnco2)cc1 [Zibotentan] + Cc1nc(NC(=O)N2CCC[C@H]2C(N)=O)sc1-c1ccnc(C(C)(C)C(F)(F)F)c1 [Alpelisib] (partner 2 µM) .
MET

====

# Tested on: PC-3 [JPC-3]
# ASSAY TEXT: relative viability (nuclei count vs DMSO), 5 days (fraction); higher = more cells survive
# CONDITION DETAILS: first compound 0.1 µM
PROPERTY: relative viability
Simply state the number, no unit and no words.

{"columns": ["MOLECULE", "relative viability"],
 "data": [
  ["O=c1cc(N2CCOCC2)oc2c(-c3cccc4c3sc3ccccc34)cccc12 + C[C@@H](Oc1cc(-c2cnn(C3CCNCC3)c2)cnc1N)c1c(Cl)ccc(F)c1Cl [Crizotinib] (partner 1 µM)", 0.938],
  ["CCN(CC)CCCCNc1ncc2cc(-c3cc(OC)cc(OC)c3)c(NC(=O)NC(C)(C)C)nc2n1 + CC(C)C[C@H](NC(=O)[C@H](Cc1ccccc1)NC(=O)c1cnccn1)B(O)O [Bortezomib] (partner 0.002 µM)", 0.972]
]}

Reported relative viability for PC-3 [JPC-3], given CCN(CC)CCCCNc1ncc2cc(-c3cc(OC)cc(OC)c3)c(NC(=O)NC(C)(C)C)nc2n1 + C[C@]1(O)C[C@@H](c2nc(-c3ccc4ccc(-c5ccccc5)nc4c3)c3c(N)nccn32)C1 [Linsitinib] (partner 1 µM) ?
0.954

Here is the next molecule: CCN(CC)CCCCNc1ncc2cc(-c3cc(OC)cc(OC)c3)c(NC(=O)NC(C)(C)C)nc2n1 + COc1cccc2cc(-c3nc([C@H]4CC[C@H](C(=O)O)CC4)n4ncnc(N)c34)[nH]c12 [OSI-027] (partner 0.5 µM)
0.782

====

# Test system: NCI-H522
# ASSAY TEXT: relative viability (nuclei count vs DMSO), 5 days (fraction); higher = more cells survive
# CONDITION DETAILS: first compound 2.53 µM
Below, each entry is listed with its recorded relative viability.
Reply with just the number.

Some compounds with recorded relative viability:
{"columns": ["COMPOUND", "PROPERTY", "VALUE MEASURED"],
 "data": [
  ["O=c1cc(-c2cccc3c2Sc2ccccc2S3)oc(N2CCOCC2)c1 + Cc1cc(Nc2cc(N3CCN(C)CC3)nc(Sc3ccc(NC(=O)C4CC4)cc3)n2)n[nH]1 [Tozasertib] (partner 0.1 µM)", "relative viability", 0.651],
  ["O=c1cc(-c2cccc3c2Sc2ccccc2S3)oc(N2CCOCC2)c1 + N=C(N)NC(=N)NCCc1ccccc1 [Phenformin] (partner 250 µM)", "relative viability", 0.556],
  ["COc1nc(C)cnc1NS(=O)(=O)c1cccnc1-c1ccc(-c2nnco2)cc1 [Zibotentan] + Cc1nc(Nc2ncc(C(=O)Nc3c(C)cccc3Cl)s2)cc(N2CCN(CCO)CC2)n1 [Dasatinib] (partner 0.075 µM)", "relative viability", 0.964]
]}

Value lookup for relative viability; key = O=c1cc(-c2cccc3c2Sc2ccccc2S3)oc(N2CCOCC2)c1 + O=C(c1cc(Cc2n[nH]c(=O)c3ccccc23)ccc1F)N1CCN(C(=O)C2CC2)CC1 [Olaparib] (partner 8 µM)
0.723

====

# Test system: NCI-H2405
# ASSAY TEXT: relative viability (nuclei count vs DMSO), 5 days (fraction); higher = more cells survive
# CONDITION DETAILS: first compound 20 µM
Binary label based on relative viability with cut-off 0.3: below gives T, not below gives F.

{"columns": ["MOLECULE", "LABEL"],
 "data": [
  ["COCC1(CO)C(=O)C2CCN1CC2 (configuration not stated) [PRIMA-1MET] + Cc1cc(Nc2cc(N3CCN(C)CC3)nc(Sc3ccc(NC(=O)C4CC4)cc3)n2)n[nH]1 [Tozasertib] (partner 0.1 µM)", "F"],
  ["COCC1(CO)C(=O)C2CCN1CC2 (configuration not stated) [PRIMA-1MET] + CC(=O)Nc1cccc(-n2c(=O)n(C3CC3)c(=O)c3c(Nc4ccc(I)cc4F)n(C)c(=O)c(C)c32)c1 [Trametinib] (partner 0.02 µM)", "T"],
  ["COCC1(CO)C(=O)C2CCN1CC2 (configuration not stated) [PRIMA-1MET] + CS(=O)(=O)CCNCc1ccc(-c2ccc3ncnc(Nc4ccc(OCc5cccc(F)c5)c(Cl)c4)c3c2)o1 [Lapatinib] (partner 2 µM)", "T"],
  ["COCC1(CO)C(=O)C2CCN1CC2 (configuration not stated) [PRIMA-1MET] + C[C@@H](Oc1cc(-c2cnn(C3CCNCC3)c2)cnc1N)c1c(Cl)ccc(F)c1Cl [Crizotinib] (partner 1 µM)", "F"],
  ["COCC1(CO)C(=O)C2CCN1CC2 (configuration not stated) [PRIMA-1MET] + CC(=O)c1c(C)c2cnc(Nc3ccc(N4CCNCC4)cn3)nc2n(C2CCCC2)c1=O [Palbociclib] (partner 0.5 µM)", "T"],
  ["COCC1(CO)C(=O)C2CCN1CC2 (configuration not stated) [PRIMA-1MET] + COc1cc2c(Oc3ccc(NC(=O)C4(C(=O)Nc5ccc(F)cc5)CC4)cc3F)ccnc2cc1OCCCN1CCOCC1 [Foretinib] (partner 0.25 µM)", "F"]
]}

Now turn to the next molecule.
Please let me know if COCC1(CO)C(=O)C2CCN1CC2 (configuration not stated) [PRIMA-1MET] + CCNC(=O)c1noc(-c2cc(C(C)C)c(O)cc2O)c1-c1ccc(CN2CCOCC2)cc1 [Luminespib] (partner 0.01 µM) shows relative viability below 0.3.
T

====

# Test system: NCI-H647
# ASSAY TEXT: relative viability (nuclei count vs DMSO), 5 days (fraction); higher = more cells survive
# CONDITION DETAILS: first compound 2.53 µM
PROPERTY: relative viability
Number only, please.

Consider the following illustrative entries.
{"columns": ["COMPOUND", "EXPERIMENTAL SYSTEM", "VALUE MEASURED"],
 "data": [
  ["O=c1cc(-c2cccc3c2Sc2ccccc2S3)oc(N2CCOCC2)c1 + Cc1cc(Nc2cc(N3CCN(C)CC3)nc(Sc3ccc(NC(=O)C4CC4)cc3)n2)n[nH]1 [Tozasertib] (partner 0.1 µM)", "NCI-H647", 0.171],
  ["O=c1cc(-c2cccc3c2Sc2ccccc2S3)oc(N2CCOCC2)c1 + CC(=O)c1c(C)c2cnc(Nc3ccc(N4CCNCC4)cn3)nc2n(C2CCCC2)c1=O [Palbociclib] (partner 0.5 µM)", "NCI-H647", 0.296],
  ["O=c1cc(-c2cccc3c2Sc2ccccc2S3)oc(N2CCOCC2)c1 + NC(=O)Nc1cc(-c2cccc(F)c2)sc1C(=O)N[C@H]1CCCNC1 [AZD7762] (partner 0.2 µM)", "NCI-H647", 0.197]
]}

Param readout = relative viability; param system = NCI-H647; param query = COc1nc(C)cnc1NS(=O)(=O)c1cccnc1-c1ccc(-c2nnco2)cc1 [Zibotentan] + CC1(C)CCC(c2ccc(Cl)cc2)=C(CN2CCN(c3ccc(C(=O)NS(=O)(=O)c4ccc(N[C@H](CCN5CCOCC5)CSc5ccccc5)c(S(=O)(=O)C(F)(F)F)c4)cc3)CC2)C1 [Navitoclax] (partner 0.5 µM) ; response: value
1.17

====

Overview of recorded relative viability for various molecules
# Test system: EKVX
# ASSAY TEXT: relative viability (nuclei count vs DMSO), 5 days (fraction); higher = more cells survive
# CONDITION DETAILS: first compound 0.1 µM
Respond using a number only.

Examples with answers:
{"columns": ["MOLECULE", "EXPERIMENTAL SYSTEM", "relative viability"],
 "data": [
  ["O=c1cc(N2CCOCC2)oc2c(-c3cccc4c3sc3ccccc34)cccc12 + Nc1ncn([C@H]2C[C@H](O)[C@@H](CO)O2)c(=O)n1 [Decitabine] (partner 2 µM)", "EKVX", 0.37],
  ["O=c1cc(N2CCOCC2)oc2c(-c3cccc4c3sc3ccccc34)cccc12 + Nc1nc2[nH]cc(CCc3ccc(C(=O)N[C@@H](CCC(=O)O)C(=O)O)cc3)c2c(=O)[nH]1 [Pemetrexed] (partner 0.2 µM)", "EKVX", 0.419]
]}

Report relative viability for CCN(CC)CCCCNc1ncc2cc(-c3cc(OC)cc(OC)c3)c(NC(=O)NC(C)(C)C)nc2n1 + O=C(CCCCCCC(=O)Nc1ccccc1)NO [Vorinostat] (partner 1 µM) please.
0.731
